experimental system: Serine/threonine-protein kinase TBK1 (Homo sapiens, UniProt Q9UHD2)
Sequence (Q9UHD2 whole entry): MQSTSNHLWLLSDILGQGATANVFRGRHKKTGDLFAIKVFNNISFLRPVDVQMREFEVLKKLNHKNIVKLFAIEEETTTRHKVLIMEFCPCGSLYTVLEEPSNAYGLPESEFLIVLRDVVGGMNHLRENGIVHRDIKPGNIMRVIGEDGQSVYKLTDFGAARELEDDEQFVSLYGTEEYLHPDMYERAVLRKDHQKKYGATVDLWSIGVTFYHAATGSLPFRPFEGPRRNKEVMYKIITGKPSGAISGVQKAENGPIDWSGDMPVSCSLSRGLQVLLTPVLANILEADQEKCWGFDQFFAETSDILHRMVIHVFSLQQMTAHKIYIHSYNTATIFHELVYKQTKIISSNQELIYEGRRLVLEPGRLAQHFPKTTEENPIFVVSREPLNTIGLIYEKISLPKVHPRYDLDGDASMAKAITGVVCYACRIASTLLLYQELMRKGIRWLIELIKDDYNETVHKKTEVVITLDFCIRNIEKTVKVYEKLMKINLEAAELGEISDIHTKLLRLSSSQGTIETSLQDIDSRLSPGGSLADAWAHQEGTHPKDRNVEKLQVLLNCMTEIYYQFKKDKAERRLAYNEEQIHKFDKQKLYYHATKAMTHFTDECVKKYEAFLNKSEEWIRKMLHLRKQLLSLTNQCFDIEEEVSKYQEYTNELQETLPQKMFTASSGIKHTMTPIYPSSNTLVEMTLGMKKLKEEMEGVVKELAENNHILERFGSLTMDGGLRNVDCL
assay summary: Inhibition of TBK1 (unknown origin) incubated for 1 hr in presence of ATP by FRET based Z'-Lyte assay
Some compounds, each annotated with its measured IC50.
measurement kind: IC50 (nM)

>>> df
                                 mol_smiles  measurement_kind  value_measured
0  O=C(NCCCn1ccc2cnc(Nc3cccc(CN4CCN(C5COC5)CC4)c3)nc21)C1CCC1              IC50              50
1  O=C(NCCCn1ccc2cnc(Nc3cccc(CN4CCOCC4)c3)nc21)C1CCC1              IC50            66.7
2  CC(=O)N1CCN(Cc2cccc(Nc3ncc4ccn(CCCNC(=O)C5CCC5)c4n3)c2)CC1              IC50            22.4
3  CN1CCN(Cc2cccc(Nc3ncc4ccn(CCCNC(=O)C5CCC5)c4n3)c2)CC1              IC50            53.6
4  COCCN(C)Cc1cccc(Nc2ncc3ccn(CCCNC(=O)C4CCC4)c3n2)c1              IC50            35.7

###

experimental system: Serine/threonine-protein kinase TBK1 (Homo sapiens) (UniProt Q9UHD2)
assay summary: Inhibition of TBK1 (unknown origin) incubated at 100 nM for 1 hr in presence of ATP by FRET based Z'-Lyte assay relative to control
Some compounds, each annotated with its measured inhibition.
measurement kind: inhibition (%)

In [3]: df
Out[3]:
                                 mol_smiles  measurement_kind  limit_sign  value_measured
0  O=C(C1CCC1)N1CCC(n2ccc3cnc(Nc4cccc(CN5CCOCC5)c4)nc32)CC1        inhibition           <               0
1  O=C(Nc1cccc(Cn2ccc3cnc(Nc4cccc(CN5CCOCC5)c4)nc32)c1)C1CCC1        inhibition           <               0
2  O=C(NCCCn1ccc2cnc(Nc3cccc(CN4CCN(C5COC5)CC4)c3)nc21)C1CCC1        inhibition           =              64
3  O=C(NCc1cccc(-n2ccc3cnc(Nc4cccc(CN5CCOCC5)c4)nc32)c1)C1CCC1        inhibition           =            15.7
4  O=C(NCCCn1ccc2cnc(Nc3cccc(CN4CCOCC4)c3)nc21)C1CCC1        inhibition           =            69.7
